- System: Substance-P receptor (Oryctolagus cuniculus)
- assay_overview: Binding constant towards tachykinin receptor 1 using ASMSP as agonist on rabbit pulmonary artery tissues.
property: pKB

- molecule: "CN(C)C(=O)C1(N2CCCCC2=O)CCN(CC[C@H](CN(C)C(=O)c2cccc3ccccc23)c2ccc(Cl)c(Cl)c2)CC1"
  tested_on: "Substance-P receptor (Oryctolagus cuniculus)"
  pKB: 6.78
- molecule: "CNC(=O)c1ccccc1C1CCN(CC[C@H](CN(C)C(=O)c2cccc3ccccc23)c2ccc(Cl)c(Cl)c2)CC1"
  tested_on: "Substance-P receptor (Oryctolagus cuniculus)"
  pKB: 7.3
- molecule: "CN(C[C@@H](CCN1CCC(O)(c2ccc([S+](C)[O-])cc2)CC1)c1ccc(Cl)c(Cl)c1)C(=O)c1cccc2ccccc12 (some centres not stated)"
  tested_on: "Substance-P receptor (Oryctolagus cuniculus)"
  pKB: 6.92
- molecule: "Cc1cc(C(=O)N(C)C[C@@H](CCN2CCC(c3ccccc3[S+](C)[O-])CC2)c2ccc(Cl)c(Cl)c2)c2ccccc2c1 (some centres not stated)"
  tested_on: "Substance-P receptor (Oryctolagus cuniculus)"
  pKB: 8.03
- molecule: "CN(C[C@@H](CCN1CCC(c2ccccc2[S+](C)[O-])CC1)c1ccc(Cl)c(Cl)c1)C(=O)c1cccc2ccc(C#N)cc12 (some centres not stated)"
  tested_on: "Substance-P receptor (Oryctolagus cuniculus)"
  pKB: 8.13
- molecule: "CN(C[C@@H](CCN1CCC(N2CCCNC2=O)CC1)c1ccc(Cl)c(Cl)c1)C(=O)c1cccc2ccccc12"
  tested_on: "Substance-P receptor (Oryctolagus cuniculus)"
  pKB: 7.34
- molecule: "CN(C[C@@H](CCN1CCC(c2ccccc2[S+](C)[O-])CC1)c1ccc(Cl)c(Cl)c1)C(=O)c1cc(C(F)(F)F)cc2ccccc12 (some centres not stated)"
  tested_on: "Substance-P receptor (Oryctolagus cuniculus)"
  pKB: 7.84

* * *

- Tested on: Rattus norvegicus
- assay_overview: Area under curve by intravenous administration at a dose of 10 uM/kg in rat was determined
- Assay type: ADME, organism-based
- condition_details: in vivo
property: AUC (ng·h/mL)
Express your answer in ng·h/mL, writing the number without its unit.

Which measured AUC value corresponds to CN(C[C@@H](CCN1CCC(c2ccccc2[S@+](C)[O-])CC1)c1ccc(Cl)c(Cl)c1)C(=O)c1cc(C#N)cc2ccccc12 (stereo in doubt) ?
3200

* * *

- Tested on: Substance-P receptor (Oryctolagus cuniculus)
- assay_overview: Binding constant towards tachykinin receptor 1 using ASMSP as agonist on rabbit pulmonary artery tissues.
property: pKB

- molecule: "CN(C[C@@H](CCN1CCC2(CC1)C[S+]([O-])c1ccccc12)c1ccc(Cl)c(Cl)c1)C(=O)c1cccc2ccccc12 (some centres undefined)"
  tested_on: "Substance-P receptor (Oryctolagus cuniculus)"
  recorded_number: 6.98
- molecule: "CN(C[C@@H](CCN1CCC(c2ccccc2S(C)(=O)=O)CC1)c1ccc(Cl)c(Cl)c1)C(=O)c1cccc2ccccc12"
  tested_on: "Substance-P receptor (Oryctolagus cuniculus)"
  recorded_number: 7.81
- molecule: "CN(C[C@@H](CCN1CCC(c2ccccc2[S+](C)[O-])CC1)c1ccc(Cl)c(Cl)c1)C(=O)c1cc(CC#N)cc2ccccc12 (some centres undefined)"
  tested_on: "Substance-P receptor (Oryctolagus cuniculus)"
  recorded_number: 8.42
- molecule: "CN(C[C@@H](CCN1CCC(c2ccccc2[S+](C)[O-])CC1)c1ccc(Cl)c(Cl)c1)C(=O)c1cccc2ccccc12 (some centres undefined)"
  tested_on: "Substance-P receptor (Oryctolagus cuniculus)"
  recorded_number: 7.89
- molecule: "CC(=O)c1cc(C(=O)N(C)C[C@@H](CCN2CCC(c3ccccc3[S+](C)[O-])CC2)c2ccc(Cl)c(Cl)c2)c2ccccc2c1 (some centres undefined)"
  tested_on: "Substance-P receptor (Oryctolagus cuniculus)"
  recorded_number: 7.41
- molecule: "CN(C[C@@H](CCN1CCC(c2ccccc2[S+](C)[O-])CC1)c1ccc(Cl)c(Cl)c1)C(=O)c1cc([N+](=O)[O-])cc2ccccc12 (some centres undefined)"
  tested_on: "Substance-P receptor (Oryctolagus cuniculus)"
  recorded_number: 8.16
- molecule: "CN(C[C@@H](CCN1CCC(c2ccccn2)CC1)c1ccc(Cl)c(Cl)c1)C(=O)c1cccc2ccccc12"
  tested_on: "Substance-P receptor (Oryctolagus cuniculus)"
  recorded_number: 6.98
- molecule: "CN(C[C@@H](CCN1CCC(c2ccccc2C(F)(F)F)CC1)c1ccc(Cl)c(Cl)c1)C(=O)c1cccc2ccccc12"
  tested_on: "Substance-P receptor (Oryctolagus cuniculus)"
  recorded_number: 6.03
- molecule: "CN(C[C@@H](CCN1CCC(c2ccccc2[S+](C)[O-])CC1)c1ccc(Cl)c(Cl)c1)C(=O)c1cc(S(N)(=O)=O)cc2ccccc12 (some centres undefined)"
  tested_on: "Substance-P receptor (Oryctolagus cuniculus)"
  recorded_number: 7.54

* * *

- Test system: Substance-P receptor (Oryctolagus cuniculus)
- assay_overview: Binding constant towards tachykinin receptor 1 using ASMSP as agonist on rabbit pulmonary artery tissues.
property: pKB

- molecule: "CC(=O)NC1(c2ccccc2)CCN(CC[C@H](CN(C)C(=O)c2cccc3ccccc23)c2ccc(Cl)c(Cl)c2)CC1"
  recorded_number: 7.18
- molecule: "COc1cc(C(=O)N(C)C[C@@H](CCN2CCC(c3ccccc3[S+](C)[O-])CC2)c2ccc(Cl)c(Cl)c2)c2ccccc2c1 (some centres not stated)"
  recorded_number: 7.95
- molecule: "CNC(=O)C1(N2CCCCC2=O)CCN(CC[C@H](CN(C)C(=O)c2cccc3ccccc23)c2ccc(Cl)c(Cl)c2)CC1"
  recorded_number: 6.42
- molecule: "CN(C)C(=O)c1cc(C(=O)N(C)C[C@@H](CCN2CCC(c3ccccc3[S+](C)[O-])CC2)c2ccc(Cl)c(Cl)c2)c2ccccc2c1 (some centres not stated)"
  recorded_number: 5.17
- molecule: "CN(C[C@@H](CCN1CCC(N2C(=O)CCCC2=O)CC1)c1ccc(Cl)c(Cl)c1)C(=O)c1cccc2ccccc12"
  recorded_number: 6.28
- molecule: "CN(C[C@@H](CCN1CCC(c2cccnc2[S+](C)[O-])CC1)c1ccc(Cl)c(Cl)c1)C(=O)c1cccc2ccccc12 (some centres not stated)"
  recorded_number: 7.69
- molecule: "CNC(=O)C1(N2CCCNC2=O)CCN(CC[C@H](CN(C)C(=O)c2cccc3ccccc23)c2ccc(Cl)c(Cl)c2)CC1"
  recorded_number: 6.82

* * *

- assay_overview: Tmax by oral administration at a dose of 100 uM/kg in rat was determined
- Type: ADME, organism-based
- condition_details: in vivo
property: Tmax (h)
Express your answer in h, writing the number without its unit.

Which measured Tmax value corresponds to CN(C[C@@H](CCN1CCC(c2ccccc2[S@+](C)[O-])CC1)c1ccc(Cl)c(Cl)c1)C(=O)c1cc(C#N)cc2ccccc12 (stereo in doubt) ?
2

* * *

- assay_overview: Bioavailability by oral administration at a dose of 10 uM/kg in dog was determined
- Format: ADME, organism-based, Canis lupus familiaris
- condition_details: in vivo, read-out: Bioavailabiility
property: bioavailability (%)
Express your answer in %, writing the number without its unit.

Which measured bioavailability value corresponds to CN(C[C@@H](CCN1CCC(c2ccccc2[S@+](C)[O-])CC1)c1ccc(Cl)c(Cl)c1)C(=O)c1cc(C#N)cc2ccccc12 (stereo in doubt) ?
18

* * *

- assay_overview: Plasma clearance in rat at a dose of 10 uM/kg in rat was determined
- Format: ADME, organism-based
- condition_details: read-out: Clp
property: clearance (mL/min/kg)
Express your answer in mL/min/kg, writing the number without its unit.

Which measured clearance value corresponds to CN(C[C@@H](CCN1CCC(c2ccccc2[S@+](C)[O-])CC1)c1ccc(Cl)c(Cl)c1)C(=O)c1cc(C#N)cc2ccccc12 (stereo in doubt) ?
32.6

* * *

- assay_overview: Volume distribution at a dose of 1 uM/kg in dog was determined
- Type: ADME, organism-based, Canis lupus familiaris
- condition_details: in vivo, read-out: Vdss
property: Vd (L/kg)
Express your answer in L/kg, writing the number without its unit.

Which measured Vd value corresponds to CN(C[C@@H](CCN1CCC(c2ccccc2[S@+](C)[O-])CC1)c1ccc(Cl)c(Cl)c1)C(=O)c1cc(C#N)cc2ccccc12 (stereo in doubt) ?
2

* * *

- tested_on: Substance-K receptor (Oryctolagus cuniculus) (UniProt P79218)
- Sequence (P79218 whole entry): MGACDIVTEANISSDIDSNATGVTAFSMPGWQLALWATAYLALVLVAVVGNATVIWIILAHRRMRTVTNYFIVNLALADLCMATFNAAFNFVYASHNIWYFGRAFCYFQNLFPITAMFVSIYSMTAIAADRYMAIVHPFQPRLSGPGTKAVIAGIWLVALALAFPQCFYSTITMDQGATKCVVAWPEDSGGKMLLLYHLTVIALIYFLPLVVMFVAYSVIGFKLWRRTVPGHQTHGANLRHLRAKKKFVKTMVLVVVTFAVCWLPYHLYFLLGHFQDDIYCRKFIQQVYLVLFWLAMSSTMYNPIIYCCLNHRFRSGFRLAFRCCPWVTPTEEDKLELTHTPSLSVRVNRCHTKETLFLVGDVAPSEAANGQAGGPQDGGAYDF
- assay_overview: Binding constant towards Tachykinin receptor 2 using BANK as agonist on rabbit pulmonary artery tissues.
property: pKB

- compound: "C=C(C)c1cc(C(=O)N(C)C[C@@H](CCN2CCC(c3ccccc3[S+](C)[O-])CC2)c2ccc(Cl)c(Cl)c2)c2ccccc2c1 (stereo not given in full)"
  pKB: 7.24
- compound: "CN(C[C@@H](CCN1CCC(c2ccccc2[S+](C)[O-])CC1)c1ccc(Cl)c(Cl)c1)C(=O)c1cc(CC#N)cc2ccccc12 (stereo not given in full)"
  pKB: 6.99
- compound: "C#Cc1cc(C(=O)N(C)C[C@@H](CCN2CCC(c3ccccc3[S+](C)[O-])CC2)c2ccc(Cl)c(Cl)c2)c2ccccc2c1 (stereo not given in full)"
  pKB: 7.44
- compound: "CN(C[C@@H](CCN1CCC(c2cccnc2[S+](C)[O-])CC1)c1ccc(Cl)c(Cl)c1)C(=O)c1cccc2ccccc12 (stereo not given in full)"
  pKB: 7.82
- compound: "CN(C[C@@H](CCN1CCC(O)(c2ccccc2[S+](C)[O-])CC1)c1ccc(Cl)c(Cl)c1)C(=O)c1cccc2ccccc12 (stereo not given in full)"
  pKB: 7.32
